Reported pEC50 is given for each of the following compounds.
biological target: TRPML3 (Homo sapiens); construct: expressed in transfected cells; assay: Fluorescent TRPML3 assay (performed as for TRPML1, substituting the TRPML3 subtype); type: cell-based; details: fluorescent calcium assay
Sequence (Q8TDD5 whole entry): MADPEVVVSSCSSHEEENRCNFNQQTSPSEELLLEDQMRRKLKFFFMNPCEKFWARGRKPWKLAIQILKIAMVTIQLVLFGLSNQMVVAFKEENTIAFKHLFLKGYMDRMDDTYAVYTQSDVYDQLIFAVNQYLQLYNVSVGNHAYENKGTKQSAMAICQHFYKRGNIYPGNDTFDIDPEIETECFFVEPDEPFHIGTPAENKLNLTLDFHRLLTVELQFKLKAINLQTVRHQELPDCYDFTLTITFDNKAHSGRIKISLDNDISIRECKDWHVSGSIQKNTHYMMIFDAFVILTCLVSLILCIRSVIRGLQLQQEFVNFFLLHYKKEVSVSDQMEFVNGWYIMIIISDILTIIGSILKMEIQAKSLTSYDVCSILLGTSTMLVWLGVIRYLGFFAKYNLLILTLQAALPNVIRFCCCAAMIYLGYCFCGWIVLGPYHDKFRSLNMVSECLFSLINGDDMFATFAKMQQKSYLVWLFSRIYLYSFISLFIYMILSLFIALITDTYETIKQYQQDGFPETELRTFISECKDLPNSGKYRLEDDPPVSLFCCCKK
pEC50: −log10 of the molar value.

Sample records with pEC50:
>>> observed_value("C[C@H]1CN(C(=O)OC(C)(C)C)CCN1c1ncnc2c1c(-c1ccccn1)cn2-c1cccc(Cl)c1")
"> 7.00"
>>> observed_value("C[C@H]1CN(C(=O)OC(C)(C)C)CCN1c1ncnc2c1c(C1CC1)nn2-c1cc(C#N)ccn1")
"6.30 to 7.00"
>>> observed_value("C[C@H]1CN(C(=O)OC(C)(C)C(F)(F)F)CCN1c1ncnc2c1c(C1CC1)cn2-c1cccc(C#N)c1")
"> 7.00"

Ask | Request: pEC50, test system TRPML3 (Homo sapiens), entry `CCN(CC)c1cn(-c2cc(C#N)ccn2)c2ncnc(N3CCN(C(=O)OC(C)(C)C)C[C@@H]3C)c12`
Reply | > 7.00

Ask | Param readout = pEC50; param system = TRPML3 (Homo sapiens); param query = `Cc1nccnc1-c1cn(-c2cc(F)cc(F)c2)c2ncnc(N3CCN(C(=O)OC(C)(C)C)C[C@@H]3C)c12` ; response: value
Reply | 6.30 to 7.00

Ask | pEC50 of `C[C@H]1CN(C(=O)OC(C)(C)C)CCN1c1ncnc2c1c(-c1cnn(C)c1)cn2-c1cccc(OC(F)(F)F)c1` on TRPML3 (Homo sapiens)?
Reply | 5.70 to 6.30

Ask | Missing value: pEC50, TRPML3 (Homo sapiens), entry Cc1c(Cl)cccc1-n1cc(-c2ccccn2)c2c(N3CCN(C(=O)OC(C)(C)C)CC3C)ncnc21 (centres unmarked) . Fill in?
Reply | > 7.00

Ask | Kindly state the measured pEC50 obtained for `C[C@H]1CN(C(=O)OC(C)(C)C)CCN1c1ncnc2c1c(C1CC1)cn2-c1cccc(Cl)c1` with TRPML3 (Homo sapiens).
Reply | > 7.00

Ask | TRPML3 (Homo sapiens) / pEC50 / `C[C@@H]1CN(C(=O)OC(C)(C)C)CCN1c1ncnc2c1c(N1CCOCC1)cn2-c1cccc(Cl)c1` : value?
Reply | 6.30 to 7.00

Ask | Kindly state the measured pEC50 obtained for `C[C@@H]1CN(c2ncnc3c2c(C2CC2)cn3-c2cc(F)c(F)c(Cl)c2)CCN1C(=O)OC(C)(C)C` with TRPML3 (Homo sapiens).
Reply | > 7.00

Ask | Query the reported pEC50 for TRPML3 (Homo sapiens); item: `C[C@H]1CN(C(=O)OC(C)(C)C)CCN1c1ncnc2c1c(C1CC1)cn2-c1cc(Cl)ccn1`
Reply | > 7.00

Ask | So what pEC50 did `C[C@H]1CN(C(=O)OC(C)(C)C)CCN1c1ncnc2c1c(C1CC1)cn2-c1cc(C#N)cc(OC(F)(F)F)c1` get with TRPML3 (Homo sapiens)?
Reply | 6.30 to 7.00

Ask | Which pEC50 is reported with TRPML3 (Homo sapiens) for this entry: `C[C@H]1CN(C(=O)OC(C)(C)C)CCN1c1ncnc2c1c(N1CCC[C@@H]1CO)cn2-c1cc(F)cc(F)c1` ?
Reply | > 7.00

Ask | Request body: readout pEC50, system TRPML3 (Homo sapiens), query `Cc1nccnc1-c1cn(-c2cc(F)cc(F)c2)c2ncnc(N3CCN(C(=O)OC(C)(C)CF)[C@H](C)C3)c12` . Return the value.
Reply | 6.30 to 7.00
